Every entry's value here was drawn from patent US8785460B2.

endpoint: melting point

[
  {
    "molecule": "CCC(CC)c1ccc(Cl)c2nc3n(c12)CCCCN3c1ccc(C(=O)N(C)C)cc1C [Example 50]",
    "melting point": "113 to 114 °C"
  }
]

Incoming: In one line, give reported melting point of the entry CCC(NCC(F)(F)F)c1ccc(Cl)c2nc3n(c12)CCCN3c1ccc(Cl)cc1Cl (centres unmarked) [Example 459] .
Outgoing: 133 to 135 °C

Incoming: In one line, give reported melting point of the entry CCC(NC(=O)C(F)F)c1ccc(Cl)c2nc3n(c12)CCCN3c1c(Cl)cc(Cl)cc1Cl (centres unmarked) [Example 409] .
Outgoing: 211 to 213 °C

Incoming: In one line, give reported melting point of the entry CCC(NC(C)=O)c1ccc(Cl)c2nc3n(c12)CCCN3c1ccc(Cl)cc1Cl (centres unmarked) [Example 440] .
Outgoing: 237 to 239 °C

Incoming: In one line, give reported melting point of the entry CC(C)(CO)c1ccc(Cl)c2nc3n(c12)CCCN3c1ccc(Cl)cc1Cl [Example 148] .
Outgoing: 176 to 177 °C

Incoming: In one line, give reported melting point of the entry CCOC(c1ccc(Cl)c2nc3n(c12)CCCN3c1ccc(Cl)cc1Cl)C(F)(F)F (centres unmarked) [Example 310] .
Outgoing: 129 to 131 °C

Incoming: In one line, give reported melting point of the entry CCC(CC)c1ccc(Cl)c2nc3n(c12)CCCCN3c1ncc(C(N)=O)cc1C [Example 340] .
Outgoing: 234 to 235 °C

Incoming: In one line, give reported melting point of the entry CS(=O)(=O)NC(c1ccc(Cl)c2nc3n(c12)CCCN3c1c(Cl)cc(Cl)cc1Cl)C(F)(F)F (centres unmarked) [Example 416] .
Outgoing: 290 to 291 °C
